# target under test: UniProt P30613
# Sequence (P30613 whole entry): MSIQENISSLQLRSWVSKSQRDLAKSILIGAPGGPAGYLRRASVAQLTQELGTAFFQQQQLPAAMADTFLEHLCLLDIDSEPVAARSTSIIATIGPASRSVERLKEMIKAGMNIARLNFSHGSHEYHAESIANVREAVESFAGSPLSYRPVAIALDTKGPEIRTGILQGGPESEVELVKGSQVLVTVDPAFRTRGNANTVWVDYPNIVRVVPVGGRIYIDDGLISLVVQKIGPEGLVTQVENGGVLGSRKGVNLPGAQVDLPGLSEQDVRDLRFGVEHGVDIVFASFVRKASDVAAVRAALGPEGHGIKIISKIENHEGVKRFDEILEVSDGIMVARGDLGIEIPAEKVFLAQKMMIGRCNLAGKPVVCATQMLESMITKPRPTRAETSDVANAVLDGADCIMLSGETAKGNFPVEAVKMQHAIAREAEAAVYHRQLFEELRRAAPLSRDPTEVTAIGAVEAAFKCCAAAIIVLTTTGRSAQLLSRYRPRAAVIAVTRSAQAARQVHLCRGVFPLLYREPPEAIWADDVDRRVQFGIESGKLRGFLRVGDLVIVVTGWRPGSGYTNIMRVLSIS
# assay info: Activation of PKR (unknown origin) by differential scanning fluorimetry analysis
pEC50: −log10 of the molar value.
property label: pEC50

record smiles	property label	recorded result
Cc1cnccc1CNC(=O)c1cc(COc2ccc3c(c2)OCO3)[nH]n1	pEC50	4.24

---

# assay info: Half life in rat at 10 mg/kg, po
# Type: ADME, organism-based
# assay setup: in vivo
property label: half-life (h)

record smiles	recorded result
Cc1nc(CNC(=O)NCc2ncnn2-c2ccc3cccnc3c2)n(-c2ccc(Cl)c(F)c2)n1	2.4

---

# assay info: Permeability of the compound across apical to basolateral side
# Assay type: ADME
# assay setup: not told; read-out: permeability
property label: Papp A→B (×10⁻⁶ cm/s)

record smiles	recorded result
Cc1nc(CNC(=O)NCc2ncnn2-c2ccc3cccnc3c2)n(-c2ccc(Cl)c(F)c2)n1	1.2
